# Test system: Plasmodium falciparum
# method-description: Antimalarial activity against chloroquine-resistant Plasmodium falciparum K1 after 72 hrs by MSF assay
# Type: functional, organism-based
# assay-conditions: K1, 72 h
quantity-measured: pIC50
Note: pIC50 values are expressed as the negative base-10 logarithm of concentration in M.

Answered examples (5):
- compound: "CCc1ccc(C(Nc2ccc(Nc3ccnc4cc(Cl)ccc34)cc2)c2nnnn2C(C)(C)C)cc1 (stereo unspecified)"
  pIC50: 6.16
- compound: "CC(C)(C)n1nnnc1C(Nc1ccc(Nc2ccnc3cc(Cl)ccc23)cc1)c1cccc2ccccc12 (stereo unspecified)"
  pIC50: 7.11
- compound: "CC(C)(C)n1nnnc1C(NCCNc1ccnc2cc(Cl)ccc12)c1ccc(Cl)cc1 (stereo unspecified)"
  pIC50: 6.56
- compound: "Clc1ccc2c(Nc3ccc(NC(c4ccc(Br)cc4)c4nnnn4C4CCCCC4)cc3)ccnc2c1 (stereo unspecified)"
  pIC50: 7.13
- compound: "COc1ccc(C(NCCCNc2ccnc3cc(Cl)ccc23)c2nnnn2C(C)(C)C)cc1OC (stereo unspecified)"
  pIC50: 6.86

// returns reported pIC50 for input Clc1ccc(C(Nc2ccc(Nc3ccnc4cc(Cl)ccc34)cc2)c2nnnn2C2CCCCC2)cc1 (stereo unspecified)
6.86

Continue with CC(C)(C)n1nnnc1C(Nc1ccc(Nc2ccnc3cc(Cl)ccc23)cc1)c1ccc(Br)cc1 (stereo unspecified)
6.63

Each recorded value in this set is attributed to ChEMBL document CHEMBL2413038.
